- Tested on: Staphylococcus epidermidis
- EXPERIMENTAL DETAILS: Antibacterial activity against Staphylococcus epidermidis ATCC 12228 assessed as reduction in bacterial cell growth incubated for 18 hrs by two fold serial microdilution method
- Type: functional
Square brackets hold non-standard residues; d marks the D form. Peptide text beside a SMILES is read from it. βAla = NCCC(=O)O
# maps each entry to its MIC

COMPOUND	EXPERIMENTAL TARGET	MIC
CC[C@H](C)[C@H](NC(=O)[C@H](CCCNC(=N)N)NC(=O)[C@H](CCCCN)NC(=O)[C@H](CC(C)C)NC(=O)[C@H](CC(C)C)NC(=O)CN)C(=O)N[C@@H](CCCCN)C(=O)NCCC(=O)N[C@@H](CC(C)C)C(=O)N[C@@H](CC(C)C)C(N)=O (H-GLLKRIK[βAla]LL-NH2)	Staphylococcus epidermidis	16 µM
CC[C@H](C)[C@H](NC(=O)CCNC(=O)[C@H](CCCCN)NC(=O)[C@H](CC(C)C)NC(=O)[C@H](CC(C)C)NC(=O)CN)C(=O)N[C@@H](CCCCN)C(=O)N[C@H](C(=O)N[C@@H](CC(C)C)C(=O)N[C@@H](CC(C)C)C(N)=O)[C@@H](C)O (H-GLLK[βAla]IKTLL-NH2)	Staphylococcus epidermidis	32 µM
CC[C@H](C)[C@H](NC(=O)[C@H](CCCNC(=N)N)NC(=O)[C@H](CCCCN)NC(=O)[C@H](CC(C)C)NC(=O)[C@H](CC(C)C)NC(=O)CN)C(=O)N[C@@H](CCCCN)C(=O)N[C@H](C(=O)N[C@@H](CC(C)C)C(=O)NCCC(N)=O)[C@@H](C)O (H-GLLKRIKTL[βAla]-NH2)	Staphylococcus epidermidis	> 128 µM
CC[C@H](C)[C@H](NC(=O)[C@H](CCCNC(=N)N)NC(=O)CCNC(=O)[C@H](CC(C)C)NC(=O)[C@H](CC(C)C)NC(=O)CN)C(=O)N[C@@H](CCCCN)C(=O)N[C@H](C(=O)N[C@@H](CC(C)C)C(=O)N[C@@H](CC(C)C)C(N)=O)[C@@H](C)O (H-GLL[βAla]RIKTLL-NH2)	Staphylococcus epidermidis	64 µM
CC(C)C[C@H](NC(=O)[C@H](CC(C)C)NC(=O)[C@@H](NC(=O)[C@H](CCCCN)NC(=O)CCNC(=O)[C@H](CCCNC(=N)N)NC(=O)[C@H](CCCCN)NC(=O)[C@H](CC(C)C)NC(=O)[C@H](CC(C)C)NC(=O)CN)[C@@H](C)O)C(N)=O (H-GLLKR[βAla]KTLL-NH2)	Staphylococcus epidermidis	> 128 µM
CC[C@H](C)[C@H](NC(=O)[C@H](CCCNC(=N)N)NC(=O)[C@H](CCCCN)NC(=O)[C@H](CC(C)C)NC(=O)[C@H](CC(C)C)NC(=O)CN)C(=O)N[C@@H](CCCCN)C(=O)N[C@H](C(=O)NCCC(=O)N[C@@H](CC(C)C)C(N)=O)[C@@H](C)O (H-GLLKRIKT[βAla]L-NH2)	Staphylococcus epidermidis	> 128 µM
CC[C@H](C)[C@H](NC(=O)[C@H](CCCNC(=N)N)NC(=O)[C@H](CCCCN)NC(=O)[C@H](CC(C)C)NC(=O)[C@H](CC(C)C)NC(=O)CN)C(=O)NCCC(=O)N[C@H](C(=O)N[C@@H](CC(C)C)C(=O)N[C@@H](CC(C)C)C(N)=O)[C@@H](C)O (H-GLLKRI[βAla]TLL-NH2)	Staphylococcus epidermidis	32 µM
CC[C@H](C)[C@H](NC(=O)[C@H](CCCNC(=N)N)NC(=O)[C@H](CCCCN)NC(=O)CCNC(=O)[C@H](CC(C)C)NC(=O)CN)C(=O)N[C@@H](CCCCN)C(=O)N[C@H](C(=O)N[C@@H](CC(C)C)C(=O)N[C@@H](CC(C)C)C(N)=O)[C@@H](C)O (H-GL[βAla]KRIKTLL-NH2)	Staphylococcus epidermidis	> 128 µM
